Biological target: Amine oxidase [flavin-containing] A (Bos taurus, UniProt P21398)
Sequence (P21398 whole entry): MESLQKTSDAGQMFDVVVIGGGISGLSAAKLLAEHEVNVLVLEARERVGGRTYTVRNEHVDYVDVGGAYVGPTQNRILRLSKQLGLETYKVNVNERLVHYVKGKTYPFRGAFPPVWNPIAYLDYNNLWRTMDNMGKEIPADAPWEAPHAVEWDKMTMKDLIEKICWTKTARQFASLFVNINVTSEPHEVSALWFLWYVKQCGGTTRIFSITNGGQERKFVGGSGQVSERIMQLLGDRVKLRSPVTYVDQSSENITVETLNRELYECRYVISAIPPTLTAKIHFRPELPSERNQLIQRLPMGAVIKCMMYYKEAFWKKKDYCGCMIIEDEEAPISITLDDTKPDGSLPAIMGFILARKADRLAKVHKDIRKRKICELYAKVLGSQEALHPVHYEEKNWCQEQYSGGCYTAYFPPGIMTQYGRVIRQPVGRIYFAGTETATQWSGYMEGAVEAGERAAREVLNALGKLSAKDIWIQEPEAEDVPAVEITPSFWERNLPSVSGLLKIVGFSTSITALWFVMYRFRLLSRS
# key: entry, value: pKi
Please note pKi is a logarithmic value: minus log10 of concentration in mol/L. Answer with that number alone.

Reference set, count: 4
{"columns": ["chemical.string", "measurement.label", "measured"],
 "data": [
  ["COc1ccc(/C=N/Nc2nc(-c3ccccc3)cs2)cc1OC", "pKi", 7.52],
  ["COc1ccc(/C=N/Nc2nc(C)cs2)cc1", "pKi", 7.72],
  ["Cc1csc(N/N=C/c2ccc(Cl)cc2Cl)n1", "pKi", 7.92],
  ["Clc1ccc(/C=N/Nc2nc(-c3ccccc3)cs2)c(Cl)c1", "pKi", 7.03]
]}

So what pKi did C(=N\Nc1nc(-c2ccccc2)cs1)/c1ccccc1 get with Amine oxidase [flavin-containing] A (Bos taurus, UniProt P21398)?
5.92
